The reported numbers originate from ChEMBL document CHEMBL4689842.

Test system: HEK-293T
Assay: Multiplex assay against HEK293T
Assay type: toxicity, cell-based
Conditions: human, 24 h, 10 µM, compound concentration 10 uM, replicate 1
Mark Not satisfied for Population Apoptotic (%) values under 70%, and Satisfied for everything at or above.

Qu. Check the entry CCc1cc2c(cc1CC)CC(NC[C@H](O)c1ccc(O)c3[nH]c(=O)ccc13)C2 [INDACATEROL] : does Population Apoptotic (%) equal or exceed 70%?
Ans. Satisfied

Qu. Check the entry Nc1ccc(C(=O)Nc2cccc(-c3nc(N4CCOCC4)c4oc5ncccc5c4n3)c2)cn1 : does Population Apoptotic (%) equal or exceed 70%?
Ans. Satisfied

Qu. Check the entry CCCn1c(=O)c2[nH]c(C34CC5CC(CC3C5)C4)nc2n(CCC)c1=O [ROLOFYLLINE] : does Population Apoptotic (%) equal or exceed 70%?
Ans. Satisfied

Qu. Check the entry Cl.Cl.Nc1ncnc2c1c(-c1cccc(OCc3ccccc3)c1)cn2[C@H]1C[C@@H](CN2CCC2)C1 : does Population Apoptotic (%) equal or exceed 70%?
Ans. Satisfied

Qu. Check the entry O=C(O)c1ccc2cc(-c3ccc(O)c(C45CC6CC(CC(C6)C4)C5)c3)ccc2c1 [O-DEMETHYLATED ADAPALENE] : does Population Apoptotic (%) equal or exceed 70%?
Ans. Not satisfied

Qu. Check the entry CCn1c(-c2nonc2N)nc2cnc(Oc3cccc(NC(=O)c4ccc(OCCN5CCOCC5)cc4)c3)cc21 [GSK-269962A] : does Population Apoptotic (%) equal or exceed 70%?
Ans. Satisfied

Qu. Check the entry COc1ccc(NS(=O)(=O)c2sc3ccc(Cl)cc3c2C)cc1N1CCNCC1.Cl : does Population Apoptotic (%) equal or exceed 70%?
Ans. Satisfied

Qu. Check the entry CC(=O)c1cc(-c2cc(C(=O)NC3CC3)ccc2C)c2ncccn12 : does Population Apoptotic (%) equal or exceed 70%?
Ans. Not satisfied

----------
System: U2OS
Assay: Multiplex assay against U2OS
Format: toxicity, cell-based
Conditions: human, 12 h, 10 µM, compound concentration 10 uM, replicate 2
Task for the reader: assign each of the following compounds its reported Population Membrane Permeable-Phenotype (%).
Give the value, in units of %, as a plain number.

Qu. Data request, read-out Population Membrane Permeable-Phenotype (%), for CC(=O)c1cc(-c2cc(C(=O)NC3CC3)ccc2C)c2ncccn12
Ans. 3

Qu. Data request, read-out Population Membrane Permeable-Phenotype (%), for CCn1c(-c2nonc2N)nc2cnc(Oc3cccc(NC(=O)c4ccc(OCCN5CCOCC5)cc4)c3)cc21 [GSK-269962A]
Ans. 45

Qu. Data request, read-out Population Membrane Permeable-Phenotype (%), for CCC(=O)O[C@]1(C(=O)SCF)[C@H](C)C[C@H]2[C@@H]3C[C@H](F)C4=CC(=O)C=C[C@]4(C)[C@@]3(F)[C@@H](O)C[C@@]21C [FLUTICASONE PROPIONATE]
Ans. 3

Qu. Data request, read-out Population Membrane Permeable-Phenotype (%), for Cc1cc2c(cc1N1C(=O)c3cccc4c(CCCO)ccc(c34)C1=O)n(C)c(=O)n2C
Ans. 29

Qu. Data request, read-out Population Membrane Permeable-Phenotype (%), for COc1ccc(NS(=O)(=O)c2sc3ccc(Cl)cc3c2C)cc1N1CCNCC1.Cl
Ans. 25

Qu. Data request, read-out Population Membrane Permeable-Phenotype (%), for N#Cc1cnc(Nc2cc(NC[C@H]3CNCCO3)c(C(F)(F)F)cn2)cn1
Ans. 15

Qu. Data request, read-out Population Membrane Permeable-Phenotype (%), for O=C(O)c1ccc2cc(-c3ccc(O)c(C45CC6CC(CC(C6)C4)C5)c3)ccc2c1
Ans. 1

Qu. Data request, read-out Population Membrane Permeable-Phenotype (%), for Cl.Cl.Nc1ncnc2c1c(-c1cccc(OCc3ccccc3)c1)cn2[C@H]1C[C@@H](CN2CCC2)C1
Ans. 77
